# credit: patent US10858339B2

- experimental target: JAK3 (Homo sapiens)
- measurement notes: JAK kinase assay, JAK3 enzyme
- Type: biochemical
- setup conditions: Table 16; read-out: JAK3

molecule: O=C(Nc1ccc2cnccc2c1)[C@@H]1C[C@H]1c1ccc(F)c(S(=O)(=O)Nc2ccccc2)c1 [Example E281]
unit of measure: µM
Ki: 7.5
//
molecule: O=C(Nc1ccc2cnccc2c1)[C@@H]1C[C@H]1c1ccc(F)c(S(=O)(=O)Nc2ccccn2)c1 [Example E280]
unit of measure: µM
Ki: 1.06
//
molecule: O=C(Nc1ccc2cnccc2c1)[C@@H]1C[C@H]1c1ccc(S(=O)(=O)NC[C@@H]2CCCNC2)cc1 [Example E273]
unit of measure: µM
Ki: 1.14
//
molecule: O=C(Nc1ccc2cncc(Cl)c2c1)[C@@H]1C[C@H]1c1ccc(S(=O)(=O)NC[C@@H]2CCCNC2)cc1 [Example E274]
unit of measure: µM
Ki: 0.16
//
molecule: O=C(Nc1ccc2cnccc2c1)[C@@H]1C[C@H]1c1ccc(S(=O)(=O)Nc2ccccn2)cc1 (single isomer, unassigned) [Example E267]
unit of measure: µM
Ki: 0.0058
//
molecule: O=C(Nc1ccc2cnccc2c1)[C@@H]1C[C@H]1c1ccc(S(=O)(=O)Nc2ccccn2)cc1 (single isomer, unassigned) [Example E266]
unit of measure: µM
Ki: 0.012

---

Form field: pKi (one value per entry).
- experimental target: JAK3 (Homo sapiens)
- Sequence (P52333 1-1124): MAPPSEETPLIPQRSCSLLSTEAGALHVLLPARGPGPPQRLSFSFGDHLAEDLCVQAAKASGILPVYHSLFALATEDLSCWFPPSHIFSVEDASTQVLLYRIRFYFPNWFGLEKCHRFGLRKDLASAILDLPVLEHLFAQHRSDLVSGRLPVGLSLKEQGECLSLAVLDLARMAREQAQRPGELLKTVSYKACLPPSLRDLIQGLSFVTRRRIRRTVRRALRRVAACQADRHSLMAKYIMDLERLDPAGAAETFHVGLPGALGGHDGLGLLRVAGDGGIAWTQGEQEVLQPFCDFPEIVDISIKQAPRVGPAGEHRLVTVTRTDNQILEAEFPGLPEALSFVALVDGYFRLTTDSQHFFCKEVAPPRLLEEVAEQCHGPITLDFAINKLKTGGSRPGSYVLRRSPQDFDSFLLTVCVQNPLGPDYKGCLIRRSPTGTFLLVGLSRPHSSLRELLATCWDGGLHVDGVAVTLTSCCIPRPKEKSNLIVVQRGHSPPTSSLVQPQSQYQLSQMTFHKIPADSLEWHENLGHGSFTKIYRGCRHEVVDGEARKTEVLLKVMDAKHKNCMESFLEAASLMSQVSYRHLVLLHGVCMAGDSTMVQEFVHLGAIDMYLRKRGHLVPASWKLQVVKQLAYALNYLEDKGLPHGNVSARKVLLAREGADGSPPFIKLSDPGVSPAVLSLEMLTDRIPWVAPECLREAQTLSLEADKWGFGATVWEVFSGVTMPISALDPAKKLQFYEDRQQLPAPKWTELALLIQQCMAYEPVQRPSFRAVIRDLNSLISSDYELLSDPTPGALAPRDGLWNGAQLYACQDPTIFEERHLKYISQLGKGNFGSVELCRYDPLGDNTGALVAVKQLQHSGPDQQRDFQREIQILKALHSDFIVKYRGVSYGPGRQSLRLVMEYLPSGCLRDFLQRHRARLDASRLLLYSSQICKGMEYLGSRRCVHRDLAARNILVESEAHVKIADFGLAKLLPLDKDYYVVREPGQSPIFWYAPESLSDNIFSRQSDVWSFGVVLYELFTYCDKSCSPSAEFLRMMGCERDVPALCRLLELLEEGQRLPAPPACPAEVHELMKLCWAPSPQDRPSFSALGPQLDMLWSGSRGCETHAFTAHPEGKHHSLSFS
- measurement notes: JAK kinase assay, JAK3 enzyme
- Assay type: biochemical
- setup conditions: Table 17; read-out: JAK3
pKi: −log10 of the molar value. Where a name gives a salt, the structure may show the parent alone.
recorded metric: pKi

molecule: O=C(Nc1ccc2cnccc2c1)[C@@H]1C[C@H]1c1ccc(S(=O)(=O)Nc2ccccn2)cc1 (racemic)
recorded metric: pKi
recorded measurement: 7.92
--
molecule: O=C(Nc1ccc2cnccc2c1)[C@@H]1C[C@H]1c1ccc(S(=O)(=O)NC[C@@H]2CCCNC2)cc1 (relative stereo) [dihydrochloride]
recorded metric: pKi
recorded measurement: 5.94
--
molecule: O=C(Nc1ccc2cnccc2c1F)[C@@H]1CC1c1ccc(S(=O)(=O)Nc2ccccn2)cc1 (mixture of isomers)
recorded metric: pKi
recorded measurement: 6.89
--
molecule: O=C(Nc1ccc2cnccc2c1)[C@@H]1C[C@H]1c1ccc(F)c(S(=O)(=O)Nc2ccccc2)c1 [drawing 674]
recorded metric: pKi
recorded measurement: 5.12
--
molecule: O=C(Nc1ccc2cncc(Cl)c2c1)[C@@H]1C[C@H]1c1ccc(S(=O)(=O)NC[C@@H]2CCCNC2)cc1 [drawing 666]
recorded metric: pKi
recorded measurement: 6.80
--
molecule: O=C(Nc1ccc2cnccc2c1)[C@@H]1C[C@H]1c1ccc(S(=O)(=O)Nc2ccccn2)cc1
recorded metric: pKi
recorded measurement: 8.37
--
molecule: O=C(Nc1ccc2cnccc2c1)[C@@H]1C[C@H]1c1ccc(F)c(S(=O)(=O)Nc2ccccn2)c1 [drawing 673]
recorded metric: pKi
recorded measurement: 5.97
--
molecule: O=C(Nc1ccc2cncc(Cl)c2c1)[C@@H]1C[C@H]1c1ccc(S(=O)(=O)NC[C@@H]2CCCNC2)cc1 (relative stereo) [dihydrochloride]
recorded metric: pKi
recorded measurement: 6.80

---

- experimental target: Rho Kinase
- measurement notes: ROCK kinase inhibition assay (Rho Kinase Activity, isoform not given)
- setup conditions: Table 15, mostly given as ranges
pKi: −log10 of the molar value.
We begin with a simple list: items and their reported pKi.

compound: O=C(Nc1ccccc1Cl)OCc1ccc(C2CC2C(=O)Nc2ccc3cnccc3c2)cc1 (stereo not shown)
experimental target: Rho Kinase
pKi: 6.60 to 6.72
--
compound: O=C1CC(c2ccc(CNCC3CCNCC3)cc2)CN1c1ccc2cnccc2c1 (stereo not shown)
experimental target: Rho Kinase
pKi: 6.22 to 6.52
--
compound: O=C(NCc1ccc(Cl)cc1)c1ccc(C2CC2C(=O)Nc2ccc3cnccc3c2)cc1 (stereo not shown)
experimental target: Rho Kinase
pKi: 7.37 to 8.52
--
compound: CC(C)(C)OC(=O)N1CCC(CNCc2ccc(C3CC(=O)N(c4ccc5cnccc5c4)C3)cc2)CC1 (stereo not shown)
experimental target: Rho Kinase
pKi: 5.40 to 5.89
--
compound: O=C(Nc1ccc2cnccc2c1)[C@@H]1C[C@H]1c1ccc(OCc2ccccc2)cc1 (relative stereo)
experimental target: Rho Kinase
pKi: 6.52 to 7.22
--
compound: O=C(NCc1ccc(Cl)cc1)c1ccc(C2CC2C(=O)Nc2ccc3cnccc3c2)c(F)c1 (stereo not shown)
experimental target: Rho Kinase
pKi: 7.00 to 7.15
--
compound: CC(C)(C)OC(=O)N1CCC(CNC(=O)c2ccc(C3CC3C(=O)Nc3ccc4cnccc4c3)cc2F)CC1 (stereo not shown)
experimental target: Rho Kinase
pKi: 9.00 to 9.40
--
compound: Cc1nccc2cc(NC(=O)C3CC3c3ccc(C(=O)NCc4cccnc4)cc3)ccc12 (stereo not shown)
experimental target: Rho Kinase
pKi: 6.70 to 7.12
--
compound: O=Cc1ccc([C@@H]2C[C@H]2C(=O)Nc2ccc3cnccc3c2)cc1 (racemic)
experimental target: Rho Kinase
pKi: 7.30 to 7.70
--
compound: O=C(NCc1ccccn1)c1ccc([C@H]2C[C@@H]2C(=O)Nc2ccc3cnccc3c2)cc1
experimental target: Rho Kinase
pKi: 4.28 to 4.92
--
compound: O=C(NCc1cccnc1)c1ccc(C2CC2C(=O)Nc2ccc3cncc(F)c3c2)cc1 (stereo not shown)
experimental target: Rho Kinase
pKi: 8.10 to 8.30
--
compound: CN(C)CCNC(=O)c1ccc(C2CC2C(=O)Nc2ccc3cnccc3c2)cc1 (stereo not shown)
experimental target: Rho Kinase
pKi: 8.05 to 8.37
--
compound: C[C@@H]1OC(c2ccc(C3CC(=O)N(c4ccc5cnccc5c4)C3)cc2)O[C@H]1C (stereo partly shown)
experimental target: Rho Kinase
pKi: 4.82 to 5.10
--
compound: O=C(Nc1ccc2cncc(Cl)c2c1)[C@@H]1C[C@H]1c1ccc(S(=O)(=O)NC[C@H]2CCCNC2)cc1 [E250E*]
experimental target: Rho Kinase
pKi: 7.96 to 8.05
--
compound: O=C(Nc1ccc2cnccc2c1)[C@@H]1C[C@H]1c1ccc(S(=O)(=O)Nc2ccccc2)cc1 (relative stereo) [Example E247A]
experimental target: Rho Kinase
pKi: 6.46 to 7.15
--
compound: C[C@@H]1OC(c2ccc(C3CC3C(=O)Nc3ccc4cnccc4c3)cc2)O[C@@H]1C (stereo partly shown)
experimental target: Rho Kinase
pKi: 6.67 to 6.78

---

- experimental target: JAK3 (Homo sapiens, UniProt P52333)
- measurement notes: JAK kinase assay, JAK3 enzyme
- Format: biochemical
- setup conditions: Table 15; in brackets in the activity cell; read-out: JAK3 activity
pKi: −log10 of the molar value.
recorded metric: pKi

compound: O=C(NCc1ccccn1)c1ccc(C2CC(=O)N(c3ccc4cnccc4c3)C2)cc1 (stereo not shown) [Example E233]
recorded measurement: 5.42 to 5.47
